# Tested on: Wolbachia pipientis
# protocol_notes: Anti-Wolbachia Cell-Based Screen
# Assay type: functional
# Design: scale not given: in the data most compounds retested in dose-response had high values
# protocol_conditions: 5 µM
The campaign covered roughly 48,000 compounds. About 13,000 (27%) showed an effect of 50% or more. This is one part of the list.
For each record, write down the corresponding Percent Effect.
One number for each entry, in %.

[
  {
    "compound_string": "CC(=O)Nc1nc(CN2CCn3c(nnc3C(C)C)C2)cs1",
    "target_desc": "Wolbachia pipientis",
    "Percent Effect, %": 134.2
  },
  {
    "compound_string": "O=C(c1ccc(Cl)cc1)N1CCCn2nnc(Cn3cccn3)c2C1",
    "target_desc": "Wolbachia pipientis",
    "Percent Effect, %": 10.27
  }
]

Would you kindly look at the next entry?
QUERY: What value of Percent Effect has been recorded for this entry: COc1ccc(CN2CC[C@@H]3[C@H]2CCC(=O)N3c2cnn(C)c2)cc1.O=C(O)C(F)(F)F
RESULT: 83.34
